Below, each entry is listed alongside its reported LC50.
System: Musca domestica
assayNotes: Insecticidal activity against housefly at 100 mM by contact assay
Assay type: functional
conditionLabel: Musca domestica; read-out: LD50 (the source's name)
Express the result in mM but write the number alone.

If you can, please state the reported LC50 value of `FC(F)(F)c1cc(Cl)c(-n2cc3c(n2)CCC3(F)F)c(Cl)c1` .
88

More entries:
If you can, please state the reported LC50 value of `O=C1CCc2nn(-c3c(Cl)cc(C(F)(F)F)cc3Cl)cc21` .
81

If you can, please state the reported LC50 value of FC1c2nn(-c3c(Cl)cc(C(F)(F)F)cc3Cl)cc2C(F)(F)C1F (centres undefined) .
0.4

If you can, please state the reported LC50 value of FC1Cc2cn(-c3c(Cl)cc(C(F)(F)F)cc3Cl)nc2C1F (centres undefined) .
79

###

Species: Mus musculus
assayNotes: Clearance in mouse
Format: ADME, organism-based
conditionLabel: in vitro
Below, each entry is listed alongside its reported CL.
Express the result in pmol/min/mg but write the number alone.

Some solved cases for reference:
If you can, please state the reported CL value of FC1Cc2nn(-c3c(Cl)cc(C(F)(F)F)cc3Cl)cc2C1(F)F (centres undefined) .
109.2

If you can, please state the reported CL value of FC1Cc2cn(-c3c(Cl)cc(C(F)(F)F)cc3Cl)nc2C1F (centres undefined) .
255.1

With those in mind, consider the next molecule.
If you can, please state the reported CL value of COC1(C)c2cn(-c3c(Cl)cc(C(F)(F)F)cc3Cl)nc2CC1F (centres undefined) .
34.1

###

testedOn: GABA receptor subunit (Musca domestica, UniProt Q75NA5)
Sequence (Q75NA5 whole entry): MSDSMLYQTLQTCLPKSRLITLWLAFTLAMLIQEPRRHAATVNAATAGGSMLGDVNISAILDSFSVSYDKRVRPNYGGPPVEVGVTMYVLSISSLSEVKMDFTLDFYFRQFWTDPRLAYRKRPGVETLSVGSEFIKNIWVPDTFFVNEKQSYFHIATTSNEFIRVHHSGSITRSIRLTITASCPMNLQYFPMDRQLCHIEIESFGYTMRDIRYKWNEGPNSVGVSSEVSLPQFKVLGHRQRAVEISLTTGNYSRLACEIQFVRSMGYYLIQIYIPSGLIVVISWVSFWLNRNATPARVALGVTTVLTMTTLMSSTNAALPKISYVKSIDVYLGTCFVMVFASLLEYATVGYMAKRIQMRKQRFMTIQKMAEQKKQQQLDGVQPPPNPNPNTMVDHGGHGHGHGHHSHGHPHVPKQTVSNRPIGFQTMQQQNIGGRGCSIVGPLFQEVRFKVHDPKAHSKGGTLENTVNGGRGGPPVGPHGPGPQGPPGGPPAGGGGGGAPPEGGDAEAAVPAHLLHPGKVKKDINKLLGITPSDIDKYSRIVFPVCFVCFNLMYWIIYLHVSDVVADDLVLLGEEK
assayNotes: Displacement of [3H]EBOB from housefly neuronal membrane GABA receptor
Below, each entry is listed alongside its reported pIC50.
Reminder that pIC50 means the negative base-10 logarithm of the concentration expressed in mol/L.

If you can, please state the reported pIC50 value of FC1CCc2cn(-c3c(Cl)cc(C(F)(F)F)cc3Cl)nc21 (configuration not stated) .
6.54

If you can, please state the reported pIC50 value of `FC(F)(F)c1cc(Cl)c(-n2cc3c(n2)C(F)(F)CC3(F)F)c(Cl)c1` .
7.13

If you can, please state the reported pIC50 value of FC1Cc2cn(-c3c(Cl)cc(C(F)(F)F)cc3Cl)nc2C1F (configuration not stated) .
6.70

If you can, please state the reported pIC50 value of COC1(C)c2cn(-c3c(Cl)cc(C(F)(F)F)cc3Cl)nc2CC1F (configuration not stated) .
7.00

If you can, please state the reported pIC50 value of `O=C1CCc2nn(-c3c(Cl)cc(C(F)(F)F)cc3Cl)cc21` .
6.33

###

System: Musca domestica
assayNotes: Insecticidal activity against housefly by contact assay
Type: functional
Design: concentration or dose not given beside the values
Short version: Activity at least 70% is Fulfilled, less is Not fulfilled.

Before answering, review these 2 worked examples.
Kindly determine if Activity recorded for CC1(F)CC(F)(F)c2nn(-c3c(Cl)cc(C(F)(F)F)cc3Cl)cc21 (configuration not stated) is above or exactly 70%.
Not fulfilled

Kindly determine if Activity recorded for `O=C1c2cn(-c3c(Cl)cc(C(F)(F)F)cc3Cl)nc2CC1(F)F` is above or exactly 70%.
Not fulfilled

More entries:
Kindly determine if Activity recorded for `FC(F)(F)c1cc(Cl)c(-n2cc3c(n2)C(F)(F)CC3(F)F)c(Cl)c1` is above or exactly 70%.
Fulfilled

Kindly determine if Activity recorded for FC1CCc2cn(-c3c(Cl)cc(C(F)(F)F)cc3Cl)nc21 (configuration not stated) is above or exactly 70%.
Fulfilled

Kindly determine if Activity recorded for COC1CC(F)(F)c2nn(-c3c(Cl)cc(C(F)(F)F)cc3Cl)cc21 (configuration not stated) is above or exactly 70%.
Not fulfilled

Kindly determine if Activity recorded for CC1(O)c2cn(-c3c(Cl)cc(C(F)(F)F)cc3Cl)nc2C(F)C1F (configuration not stated) is above or exactly 70%.
Fulfilled

Kindly determine if Activity recorded for `FC1(F)Cc2cn(-c3c(Cl)cc(C(F)(F)F)cc3Cl)nc2C1` is above or exactly 70%.
Fulfilled
